tested on: UT-SCC-40; assay: relative IC50 (midpoint of the fitted curve; maximal inhibition may be below 50%); higher = less potent; conditions: culture condition: embedded in Myogel + collagen I; treatment time: 3 days
parameter: relative IC50 (nM)
Provide the reading as a plain figure in nM.

record smiles	tested on	unit label	relative IC50
Cn1c(=O)c(F)c(Nc2ccc(I)cc2F)c2c(=O)n(C[C@@H](O)CO)cnc21	UT-SCC-40	nM	6.76
COc1cc(F)c(F)c(Nc2ccc(I)cc2F)c1NS(=O)(=O)C1(C[C@H](O)CO)CC1	UT-SCC-40	nM	118
COc1ncc(-c2ccc3nccc(-c4ccnnc4)c3c2)cc1NS(=O)(=O)c1ccc(F)cc1F	UT-SCC-40	nM	9.86
Cn1cnc2c(F)c(Nc3ccc(Br)cc3Cl)c(C(=O)NOCCO)cc21	UT-SCC-40	nM	41.5
CO[C@H]1C[C@@H]2CC[C@@H](C)[C@@](O)(O2)C(=O)C(=O)N2CCCC[C@H]2C(=O)O[C@H]([C@H](C)C[C@@H]2CC[C@@H](OC(=O)C(C)(CO)CO)[C@H](OC)C2)CC(=O)[C@H](C)/C=C(\C)[C@@H](O)[C@@H](OC)C(=O)[C@H](C)C[C@H](C)/C=C/C=C/C=C/1C	UT-SCC-40	nM	2.84
O=C(NC[C@H](O)CO)c1ccncc1Nc1ccc(I)cc1F	UT-SCC-40	nM	45.4
Cc1c(CN2CCN(C(=O)[C@H](C)O)CC2)sc2c(N3CCOCC3)nc(-c3cnc(N)nc3)nc12	UT-SCC-40	nM	1560

// returns reported relative IC50 for input `C=CC(=O)Nc1cc2c(Nc3ccc(F)c(Cl)c3)ncnc2cc1OCCCN1CCOCC1` 1310
